Entries annotated with measured IC50, EGF-induced ERK phosphorylation, A431 cells, In Cell Western
system tested: EGFR on the surface of human tumour cells (A431, H292) (human, UniProt P00533 25-1210)
protocol details: cell-based or functional assay
Unit nM implied. Number only.

Some entries whose results are on file:
E4-GS10-I1 pegylated, His-tagged (designed binder, 40 kDa branched PEG on the Cys of the C-terminal Cys tail, also called E4-GS10-I1 (with Peg)) MGVSDVPRDLEVVAATPTSLLISWHERDGSRQYYRITYGETGGNSPVQEFTVPGGVRTATISGLKPGVDYTITVYAVTDYFNPTTHEYIYQTTPISINYRTEIDKGSGSGSGSGSGSGSGSGSGSVSDVPRDLEVVAATPTSLLISWSARLKVARYYRITYGETGGNSPVQEFTVPKNVYTATISGLKPGVDYTITVYAVTRFRDYQPISINYRTEIDKPCQHHHHHH = 12
E105-GS10-I1 pegylated (designed binder, chain 1 pos 221: Cys carrying a maleimide-linked 40 kDa branched PEG, written C, lower row of the two named E105-GS10-I1 pegylated) MGVSDVPRDLEVVAATPTSLLISWDAPTSRYQYYRITYGETGGNSPVQEFTVPGGLSTATISGLKPGVDYTITVYAVTDYKPHADGPHTYHESPISINYRTEIDKGSGSGSGSGSGSGSGSGSGSVSDVPRDLEVVAATPTSLLISWSARLKVARYYRITYGETGGNSPVQEFTVPKNVYTATISGLKPGVDYTITVYAVTRFRDYQPISINYRTEIDKPCQHHHHHH = 49
E85-GS10-I1 pegylated (designed binder, Cys of the C-terminal Cys tail conjugated to 40 kDa branched PEG) E/I tandem 10Fn3 chain: MGVSDVPRDLEVVAATPTSLLISWTQGSTHYQYYRITYGETGGNSPVQEFTVPGMVYTATISGLKPGVDYTITVYAVTDYFDRSTHEYKYRTTPISINYRTEIDKGSGSGSGSGSGSGSGSGSGSVSDVPRDLEVVAATPTSLLISWSARLKVARYYRITYGETGGNSPVQEFTVPKNVYTATISGLKPGVDYTITVYAVTRFRDYQPISINYRTEIDKPCQHHHHHH = 15
E96-GS10-I1 pegylated (designed binder, Cys of the C-terminal Cys tail conjugated to 40 kDa branched PEG) E/I tandem 10Fn3 chain: MGVSDVPRDLEVVAATPTSLLISWASNRGTYQYYRITYGETGGNSPVQEFTVPGGVSTATISGLKPGVDYTITVYAVTDAFNPTTHEYNYFTTPISINYRTEIDKGSGSGSGSGSGSGSGSGSGSVSDVPRDLEVVAATPTSLLISWSARLKVARYYRITYGETGGNSPVQEFTVPKNVYTATISGLKPGVDYTITVYAVTRFRDYQPISINYRTEIDKPCQHHHHHH = 54

Here's the next entry for you.
IC50, EGF-induced ERK phosphorylation, A431 cells, In Cell Western reported for this binder I1-GS10-E85 pegylated, His-tagged (designed binder, 40 kDa branched PEG on the Cys of the C-terminal Cys tail) MGVSDVPRDLEVVAATPTSLLISWSARLKVARYYRITYGETGGNSPVQEFTVPKNVYTATISGLKPGVDYTITVYAVTRFRDYQPISINYRTEIDKGSGSGSGSGSGSGSGSGSGSVSDVPRDLEVVAATPTSLLISWTQGSTHYQYYRITYGETGGNSPVQEFTVPGMVYTATISGLKPGVDYTITVYAVTDYFDRSTHEYKYRTTPISINYRTEIDKPCQHHHHHH : 23
